experiment: Partition coefficient (logP); format: physicochemical; conditions: octanol/water
quantity kind: logP

{"columns": ["smiles representation", "quantity kind", "measured"],
 "data": [
  ["CC[C@H](C)[C@H](NC(=O)C[C@H](O)[C@H](CC1CCCCC1)NC(=O)CCNC(=O)[C@H](Cc1ccccc1)NC(=O)CCC[N+](C)(C)C)C(=O)NCc1cnc(C)nc1N.[Cl-]", "logP", 1.53]
]}

a = CC[C@H](C)[C@H](NC(=O)C[C@H](O)[C@H](CC1CCCCC1)NC(=O)CCNC(=O)[C@H](Cc1ccccc1)NC(=O)N1CCC(N)CC1)C(=O)NCc1cnc(C)nc1N.Cl.Cl
b = CC[C@H](C)[C@H](NC(=O)C[C@H](O)[C@@H](CC1CCCCC1)NC(=O)CCNC(=O)[C@@H](Cc1ccccc1)NC(=O)OC(C)(C)C)C(=O)NCc1cnc(C)nc1N
Data request: Would you let me know which has the greater logP value, a or b ? Please respond with the label that marks your chosen entry.
Data returned: b

###

Target: Cathepsin D (Bos taurus, UniProt P80209)
Sequence (P80209 whole entry): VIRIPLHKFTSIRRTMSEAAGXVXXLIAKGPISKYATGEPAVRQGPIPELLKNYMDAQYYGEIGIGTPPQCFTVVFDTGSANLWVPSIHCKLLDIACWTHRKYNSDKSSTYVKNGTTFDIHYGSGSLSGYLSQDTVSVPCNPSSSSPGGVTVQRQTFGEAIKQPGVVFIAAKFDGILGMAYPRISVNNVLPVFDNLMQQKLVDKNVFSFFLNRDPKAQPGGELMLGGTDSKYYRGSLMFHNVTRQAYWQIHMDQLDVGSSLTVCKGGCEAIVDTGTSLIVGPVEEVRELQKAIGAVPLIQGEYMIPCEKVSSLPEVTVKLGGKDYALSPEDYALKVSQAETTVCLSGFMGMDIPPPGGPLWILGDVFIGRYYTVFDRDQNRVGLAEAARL
quantity kind: IC50 (µM)

The examples below pair each entry with its known result.
{"columns": ["smiles representation", "experimental system", "units symbol", "measured"],
 "data": [
  ["CC[C@H](C)[C@H](NC(=O)C[C@H](O)[C@H](CC1CCCCC1)NC(=O)CSCC(=O)[C@H](Cc1ccccc1)NC(=O)OC(C)(C)C)C(=O)NCc1cnc(C)nc1N", "Cathepsin D (Bos taurus, UniProt P80209)", "µM", 28],
  ["CC[C@H](C)[C@H](NC(=O)C[C@H](O)[C@H](Cc1ccccc1)NC(=O)[C@H](Cc1c[nH]cn1)NC(=O)[C@H](Cc1ccccc1)NC(=O)OC(C)(C)C)C(=O)NCc1cccnc1", "Cathepsin D (Bos taurus, UniProt P80209)", "µM", 5.8],
  ["CCOC(=O)C1CCN(C(=O)N[C@@H](Cc2ccccc2)C(=O)NCCC(=O)N[C@@H](CC2CCCCC2)[C@@H](O)CC(=O)N[C@H](C(=O)NCc2cnc(C)nc2N)[C@@H](C)CC)CC1", "Cathepsin D (Bos taurus, UniProt P80209)", "µM", 3.15]
]}

1 = CC[C@H](C)[C@H](NC(=O)C[C@H](O)[C@H](CC1CCCCC1)NC(=O)CCNC(=O)[C@H](Cc1ccccc1)NC(=O)N1CCC(N(C)C)CC1)C(=O)NCc1cnc(C)nc1N
2 = CC[C@H](C)[C@H](NC(=O)[C@@H](C[C@H](O)[C@H](CC(C)C)NC(=O)CNC(=O)[C@H](Cc1ccccc1)NC(=O)OC(C)(C)C)C(C)C)C(=O)NCc1cnc(C)nc1N
Data request: Consider entries 1 and 2 . Which has the numerically lower IC50? Write down the label of the entry you select.
Data returned: 2

I = CC[C@H](C)[C@H](NC(=O)C[C@H](O)[C@H](CC1CCCCC1)NC(=O)[C@H](C)NC(=O)[C@H](Cc1ccccc1)NC(=O)OC(C)(C)C)C(=O)NCc1cnc(C)nc1N
II = CC[C@H](C)[C@H](NC(=O)C[C@H](O)[C@H](CC1CCCCC1)NC(=O)CSC[C@@H](O)[C@H](Cc1ccccc1)NC(=O)OC(C)(C)C)C(=O)NCc1cnc(C)nc1N
Data request: Lab log: flag the item ( I or II ) with the smaller IC50 figure. Your answer should be the label attached to the chosen record.
Data returned: I
(I: 0.028 µM, II: 73 µM)

###

molecular target: Renin (Homo sapiens); assay: In vitro for inhibitory activity against human renin
pIC50: −log10 of the molar value.
quantity kind: pIC50

P = CC[C@H](C)[C@H](NC(=O)C[C@H](O)[C@@H](CC1CCCCC1)NC(=O)CNC(=O)[C@@H](Cc1ccccc1)NC(=O)OC(C)(C)C)C(=O)NCc1cnc(C)nc1N
Q = CC[C@H](C)[C@H](NC(=O)C[C@H](O)[C@@H](CC1CCCCC1)NC(=O)CCNC(=O)[C@@H](Cc1ccccc1)NC(=O)OC(C)(C)C)C(=O)NCc1cnc(C)nc1N
R = CCOC(=O)C1CCN(C(=O)N[C@@H](Cc2ccccc2)C(=O)NCCC(=O)N[C@@H](CC2CCCCC2)[C@@H](O)CC(=O)N[C@H](C(=O)NCc2cnc(C)nc2N)[C@@H](C)CC)CC1
S = CC[C@H](C)[C@H](NC(=O)C[C@H](O)[C@H](CC1CCCCC1)NC(=O)CCC(=O)[C@H](Cc1ccccc1)NC(=O)OC(C)(C)C)C(=O)NCc1cnc(C)nc1N
Data request: Which order do these items take when sorted by rising pIC50? List them. Reply: labels, ordered per the request.
Data returned: S, P, Q, R
(S: 8.07, P: 8.60, Q: 8.82, R: 9.39)

###

Molecular target: Renin (Homo sapiens)
Sequence (P00797 whole entry): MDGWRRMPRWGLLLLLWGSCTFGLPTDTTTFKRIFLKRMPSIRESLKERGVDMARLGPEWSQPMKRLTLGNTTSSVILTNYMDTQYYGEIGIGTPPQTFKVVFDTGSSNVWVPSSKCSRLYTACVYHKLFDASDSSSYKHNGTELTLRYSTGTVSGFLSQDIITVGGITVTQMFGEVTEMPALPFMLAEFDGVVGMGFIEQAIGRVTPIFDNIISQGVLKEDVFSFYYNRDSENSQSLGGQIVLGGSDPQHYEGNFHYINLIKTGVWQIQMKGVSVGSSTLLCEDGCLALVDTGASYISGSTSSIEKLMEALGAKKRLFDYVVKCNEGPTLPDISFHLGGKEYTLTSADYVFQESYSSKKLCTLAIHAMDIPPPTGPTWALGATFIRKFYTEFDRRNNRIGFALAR
Assay: In vitro for inhibitory activity against human renin
quantity kind: IC50 (nM)

Use these answered entries as a reference point.
{"columns": ["compound", "IC50, nM"],
 "data": [
  ["CC[C@H](C)[C@H](NC(=O)C[C@H](O)[C@H](CC1CCCCC1)NC(=O)[C@H](C)NC(=O)[C@H](Cc1ccccc1)NC(=O)OC(C)(C)C)C(=O)NCc1cnc(C)nc1N", 0.53],
  ["CC[C@H](C)[C@H](NC(=O)C[C@H](O)[C@H](CC1CCCCC1)NC(=O)C[S+]([O-])CC(=O)[C@H](Cc1ccccc1)NC(=O)OC(C)(C)C)C(=O)NCc1cnc(C)nc1N (stereo partly specified)", 70],
  ["CC[C@H](C)[C@H](NC(=O)C[C@H](O)[C@H](CC1CCCCC1)NC(=O)CCNC(=O)[C@H](Cc1ccccc1)NC(=O)N1CCC(NC(=O)OC(C)(C)C)CC1)C(=O)NCc1cnc(C)nc1N", 0.65]
]}

a = CC[C@H](C)[C@H](NC(=O)C[C@H](O)[C@H](CC1CCCCC1)NC(=O)CCNC(=O)[C@@H](N)Cc1ccccc1)C(=O)NCc1cnc(C)nc1N
b = CC[C@H](C)[C@H](NC(=O)C[C@H](O)[C@H](CC1CCCCC1)NC(=O)CCNC(=O)[C@H](Cc1ccccc1)NC(=O)CCCCCN)C(=O)NCc1cnc(C)nc1N
Data request: Among a and b , which shows a numerically higher IC50 result? Could you answer with the label of the item you picked?
Data returned: a
(a: 19.5 nM, b: 4.5 nM)

A = CC[C@H](C)[C@H](NC(=O)[C@@H](C[C@H](O)[C@H](CC(C)C)NC(=O)CSCC(=O)[C@H](Cc1ccccc1)NC(=O)OC(C)(C)C)C(C)C)C(=O)NCc1cnc(C)nc1N
B = CC[C@H](C)[C@H](NC(=O)C[C@H](O)[C@H](CC1CCCCC1)NC(=O)CCNC(=O)[C@H](Cc1ccccc1)NC(=O)N1CCC(N)CC1)C(=O)NCc1cnc(C)nc1N.Cl.Cl
Data request: Two entries are listed, A and B . Which one carries the higher IC50? # answer = label of selected item
Data returned: A
(A: 5.4 nM, B: 0.76 nM)

###

target: Renin (Homo sapiens); experiment: Compound was tested in vitro for inhibitory activity against human renin
pIC50: −log10 of the molar value.
quantity kind: pIC50

a = CC[C@H](C)[C@H](NC(=O)[C@@H](C[C@H](O)[C@H](CC(C)C)NC(=O)CCC(=O)[C@H](Cc1ccccc1)NC(=O)OC(C)(C)C)C(C)C)C(=O)NCc1cnc(C)nc1N
b = CC[C@H](C)[C@H](NC(=O)C[C@H](O)[C@H](CC1CCCCC1)NC(=O)CSCC(=O)[C@H](Cc1ccccc1)NC(=O)OC(C)(C)C)C(=O)NCc1cnc(C)nc1N
Data request: Between a and b , whose measured pIC50 reads higher? // caller expects the label of the chosen entry
Data returned: b
(b: 8.68, a: 8.29)
